Answer each item with its documented Herbicidal rate (%) Echinochloa crus-galli.
# Test system: Echinochloa crus-galli
# PROTOCOL: Test Example 2: herbicidal effect test by treatment during growing period in paddy rice cultivation (seven days after seeding)
# Format: in vivo
# TEST_PARAMETERS: 120 g/10a active ingredient, assessed 14 days after treatment, dry weight vs untreated area
Give bare numbers, in %.

# MOLECULE, UNITS_LABEL, MEAS_VALUE
measured = [
    ("Cc1c(Cc2ccccc2N(S(=O)(=O)C(F)(F)F)S(=O)(=O)C(F)(F)F)c(=O)on1CC1CC1", "%", 90),
    ("CCN(CC)C(=O)n1oc(=O)c(Cc2ccccc2N(C(=O)OCC(C)C)S(=O)(=O)C(F)(F)F)c1C", "%", 50),
    ("Cc1c(Cc2ccccc2NS(=O)(=O)C(F)(F)F)c(=O)on1Cc1cccc(F)c1", "%", 40),
    ("C=CCOC(=O)N(c1ccccc1Cc1c(C)n(C(C)COC)oc1=O)S(=O)(=O)C(F)(F)F (stereo not shown)", "%", 90),
    ("CSCCCn1oc(=O)c(Cc2ccccc2NS(=O)(=O)C(F)(F)F)c1C", "%", 90),
]

For each entry beneath this line, provide reported Herbicidal rate (%) Echinochloa crus-galli.
1. CCCCCCCCn1oc(=O)c(Cc2ccccc2N(S(=O)(=O)C(F)(F)F)S(=O)(=O)C(F)(F)F)c1C
2. Cc1c(Cc2ccccc2N(S(=O)(=O)C(F)(F)F)S(=O)(=O)C(F)(F)F)c(=O)on1C(C)c1ccccc1Cl (stereo not shown)

Output:
[90, 40]

* * *

# Tested on: Amaranthus viridis
# PROTOCOL: Test Example 4: herbicidal effect test by treatment of leave and stem in dry field farming (seven days after seeding)
# Assay type: in vivo
# TEST_PARAMETERS: 120 g/10a active ingredient; emulsion sprayed seven days after seeding; evaluated 14 days after treatment
For each entry below, report its herbicidal effect (herbicidal rate), Amaranthus viridis value.
Record the result as number plus unit.

# COMPOUND, MEAS_VALUE
rows = [
    ("CCCC(C)n1oc(=O)c(Cc2ccccc2N(C(C)=O)S(=O)(=O)C(F)(F)F)c1C (stereo not shown)", "40%"),
    ("COCCOC(=O)N(c1ccccc1Cc1c(C)n(CCSC)oc1=O)S(=O)(=O)C(F)(F)F", "40%"),
]

Would you mind giving herbicidal effect (herbicidal rate), Amaranthus viridis for every compound in the list below?
1. Cc1c(Cc2ccccc2N(S(=O)(=O)C(F)(F)F)S(=O)(=O)C(F)(F)F)c(=O)on1CC1(C)CC1
2. Cc1c(Cc2ccccc2NS(=O)(=O)C(F)(F)F)c(=O)on1C(C)Cc1ccccc1 (stereo not shown)

Output:
1. 40%
2. 60%

For each entry beneath this line, provide reported herbicidal effect (herbicidal rate), Amaranthus viridis.
1. CCOC(=O)N(c1ccccc1Cc1c(C)n(C(C)(C)C)oc1=O)S(=O)(=O)C(F)(F)F
2. CC(C)Cn1oc(=O)c(Cc2ccccc2NS(=O)(=O)C(F)(F)F)c1C(F)(F)F
3. Cc1c(Cc2ccccc2N(C(=O)C(C)C)S(=O)(=O)C(F)(F)F)c(=O)on1CC(C)(C)C
4. COCC(C)n1oc(=O)c(Cc2ccccc2N(C(=O)C2CCCCC2)S(=O)(=O)C(F)(F)F)c1C (stereo not shown)
5. Cc1c(Cc2ccccc2NS(=O)(=O)C(F)(F)F)c(=O)on1CC1(C)CC1

Output:
1: 40%; 2: 0%; 3: 40%; 4: 40%; 5: 0%

For the 4 compounds below, give their herbicidal effect (herbicidal rate), Amaranthus viridis values.
1. Cc1c(Cc2ccccc2NS(=O)(=O)C(F)(F)F)c(=O)on1CCC(C)(C)C
2. CSCCn1oc(=O)c(Cc2ccccc2N(C(=O)CC(C)C)S(=O)(=O)C(F)(F)F)c1C
3. Cc1c(Cc2ccccc2NS(=O)(=O)C(F)(F)F)c(=O)on1C(C)C1CC1 (stereo not shown)
4. CCC(C)n1oc(=O)c(Cc2ccccc2N(C(=O)CC(C)C)S(=O)(=O)C(F)(F)F)c1C (stereo not shown)

Output:
1: 60%; 2: 40%; 3: 50%; 4: 40%

Give herbicidal effect (herbicidal rate), Amaranthus viridis for each listed item.
1. Cc1c(Cc2cc(F)ccc2NS(=O)(=O)C(F)(F)F)c(=O)on1CC(C)C
2. Cc1c(Cc2ccccc2NS(=O)(=O)C(F)(F)F)c(=O)on1CC(F)(F)F
3. CCCC(C)n1oc(=O)c(Cc2ccccc2N(C(=O)C(C)C)S(=O)(=O)C(F)(F)F)c1C (stereo not shown)

Output:
["80%", "50%", "60%"]
